molecular target: Bile acid receptor (Homo sapiens, UniProt Q96RI1); experiment: FXR Reporter Assay kit purchased from Indigo Bioscience (Catalogue number: IB00601) to determine the potency and efficacy of compound developed by Enanta that can induce FXR activation. The principle application of this reporter assay system is to quantify functional activity of human FXR. The assay utilizes non-human mammalian cells, CHO (Chinese hamster ovary) cells engineered to express human NR1H4 protein (referred to as FXR). Reporter cells also incorporate the cDNA encoding beetle luciferase which catalyzes the substrates and yields photon emission. Luminescence intensity of the reaction is quantified using a plate-reading luminometer, Envision. Reporter Cells include the luciferase reporter gene functionally linked to an FXR responsive promoter. Thus, quantifying changes in luciferase expression in the treated reporter cells provides a sensitive surrogate measure of the changes in FXR activity. […] The assay is according to the manufacturer's instructions. In brief, the assay was performed in white, 96 well plates using final volume of 100 μl containing cells with different doses of compounds. Retrieve Reporter Cells from −80° C. storage. Perform a rapid thaw of the frozen cells by transferring a 10 ml volume of 37° C. cell recovery medium into the tube of frozen cells. Recap the tube of Reporter Cells and immediately place it in a 37° C. water bath for 5-10 minutes. Retrieve the tube of Reporter Cell Suspension from the water bath. Sanitize the outside surface of the tube with a 70% alcohol swab, and then transfer it into the cell culture hood. Dispense 90 μl of cell suspension into each well of the 96-well Assay Plate. Transfer the plate into 37° C. incubator, allowing the cells adherent to the bottom of the well. Dilute compounds in Dilution Plate (DP), and administrate to cells at Assay Plate (AP). DMSO content of the samples was kept at 0.2%. Cells were incubated for additional 22 hours before luciferase activities were measured. Thirty minutes before intending to quantify FXR activity, remove Detection Substrate and Detection Buffer from the refrigerator and place them in a low-light area so that they may equilibrate to room temperature. Remove the plate's lid and discard all media contents by ejecting it into an appropriate waste container. Gently tap the inverted plate onto a clean absorbent paper towel to remove residual droplets. Cells will remain tightly adhered to well bottoms. Add 100 μl of luciferase detection reagent to each well of the assay plate. Allow the assay plate to rest at room temperature for at least 5 minutes following the addition of LDR. […] Read time may be 0.5 second (500 mSec) per well.
Sequence (Q96RI1 whole entry): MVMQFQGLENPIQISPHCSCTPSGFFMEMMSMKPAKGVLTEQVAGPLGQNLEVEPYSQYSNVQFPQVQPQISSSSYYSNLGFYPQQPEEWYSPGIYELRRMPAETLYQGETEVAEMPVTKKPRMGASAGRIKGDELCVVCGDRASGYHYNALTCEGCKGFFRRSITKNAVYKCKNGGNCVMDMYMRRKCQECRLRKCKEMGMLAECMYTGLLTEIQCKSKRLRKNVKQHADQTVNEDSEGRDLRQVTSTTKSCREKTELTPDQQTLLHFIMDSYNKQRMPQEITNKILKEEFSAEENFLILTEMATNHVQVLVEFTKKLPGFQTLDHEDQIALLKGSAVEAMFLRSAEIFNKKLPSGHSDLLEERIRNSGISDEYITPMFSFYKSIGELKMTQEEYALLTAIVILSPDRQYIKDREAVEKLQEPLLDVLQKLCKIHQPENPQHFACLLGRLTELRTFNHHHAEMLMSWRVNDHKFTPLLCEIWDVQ
readout-name: EC50

Sample `CN(C)S(=O)(=O)NC(=O)c1ccc2nc(N3C4CC[C@H]3C[C@H](OCc3c(-c5c(Cl)cccc5Cl)noc3C3CC3)C4)sc2c1` ; EC50 observed: < 100 nM
